Reference source for all entries: patent US12691070B2

Tested on: BALB/C mice
Assay: In vivo expression, whole-body luminescence (IVIS)
Details: cirRNA (SEQ ID NO: 1) LNPs, BALB/C mice

# compound, target_of_assay, In vivo Expression (Whole Body)
measured = [
    ("CCCCCCCCCCC(CCCCCCCC)COC(=O)CCCCCN(CCCCCC(=O)OCC(CCCCCCCC)CCCCCCCCCC)CCCOC(=O)NCc1ncc[nH]1 (stereo not shown) [Lipid 365]", "BALB/C mice", "1.32E+08"),
    ("CCCCC/C=C\\CCOC(=O)CCCCCN(CCCCCC(=O)OCC(CCCCCCCC)CCCCCCCCCC)CCOC(=O)NCCN1CCCCC1 (stereo not shown) [Lipid 245]", "BALB/C mice", "2.99E+08"),
    ("CCCCC/C=C\\C/C=C\\CCCCCCCCN(CCCCCCCC/C=C\\C/C=C\\CCCCC)CCOC(=O)NCCN1CCOCC1 [Lipid 36]", "BALB/C mice", "1.21E+05"),
    ("CCCCC/C=C\\C/C=C\\CCCCCCCCN(CCCCCCCC(=O)OC(CCCCCCCC)CCCCCCCC)CCOC(=O)NCCCN(C)C [Lipid 130]", "BALB/C mice", "1.08E+07"),
    ("CCCCC/C=C\\C/C=C\\CCCCCCCCN(CCCCCCCC(=O)OC(CCCCCCCC)CCCCCCCC)CCOC(=O)NCCCN(CC)CC [Lipid 131]", "BALB/C mice", "2.27E+08"),
    ("CCCCCCCCC(CCCCCC)C(=O)OCCCCCCCCN(CCCCCCCCOC(=O)C(CCCCCC)CCCCCCCC)CCCOC(=O)NCCCN(C)C (stereo not shown) [Lipid 378]", "BALB/C mice", "8.79E+06"),
    ("CCCCCCOC(=O)CCCCCCCCCCN(CCCCCCCCCCC(=O)OCCCCCC)CCOC(=O)NCCN(C)C [Lipid 136]", "BALB/C mice", "6.14E+03"),
]

* * *

Experiment: LNP size and polydispersity index (PDI) by dynamic light scattering
Assay type: physicochemical
Settings: LNP with cirRNA (SEQ ID NO: 1)

# molecule, PDI
rows = [
    ("CCCCCCCCCC(=O)OCCCCCCCN(CCCCCCCCOC(=O)C(CCCCCC)CCCCCCCC)CCOC(=O)NCCN1CCCCC1 (stereo not shown)", 0.0364),
    ("CCCCCCCCCCCOC(=O)CCCCCN(CCCCCCCC(=O)OC(CCCCCCCC)CCCCCCCC)CCOC(=O)NCCN(C)C", 0.2315),
    ("CCCCCCCCCCCOC(=O)CCCCCN(CCCCCCCC(=O)OC(CCCCCCCC)CCCCCCCC)CCOC(=O)NCCN1CCOCC1", 0.08727),
    ("CCCCCCCC/C=C\\CCCCCCCCN(CCCCCCCCOC(=O)C(CCCCCC)CCCCCCCC)CCOC(=O)NCCCN(CC)CC (stereo not shown)", 0.2952),
]

* * *

Assay: LNP size and polydispersity index (PDI) by dynamic light scattering
Assay type: physicochemical
Settings: LNP with cirRNA (SEQ ID NO: 1)

# compound, PDI
rows = [
    ("CCCCCCCCC(CCCCCC)C(=O)OCCCCCCCCN(CCCCCCCCOC(=O)C(CCCCCC)CCCCCCCC)CCCOC(=O)NCCN1CCC1 (centres unmarked)", 0.2452),
    ("CCCCC/C=C\\CCOC(=O)CCCCCCCN(CCCCCCCC(=O)OCC/C=C\\CCCCC)CCOC(=O)CCCN(C)C [Lipid C, reference compound]", 0.1152),
    ("CCCCCCCCC(CCCCCCCC)OC(=O)CCCCCCCN(CCCCCCCCOC(=O)C(CCCCCC)CCCCCCCC)CCCOC(=O)NCc1ncc[nH]1 (centres unmarked)", 0.1901),
    ("CCCCCCCCCC(=O)OCCCCCCCN(CCCCCCCCOC(=O)C(CCCCCC)CCCCCCCC)CCOC(=O)NCCCN(CC)CC (centres unmarked)", 0.436),
    ("CCCCC/C=C\\C/C=C\\CCCCCCCCN(CCCCCCCC(=O)OC(CCCCCCCC)CCCCCCCC)CCCOC(=O)NCc1ncc[nH]1", 0.2068),
    ("CCCCC/C=C\\CCOC(=O)CCCCCN(CCCCCCCCOC(=O)C(CCCCCC)CCCCCCCC)CCOC(=O)NCc1ncc[nH]1 (centres unmarked)", 0.102),
    ("CCCCCCCCC(CCCCCC)C(=O)OCCCCCCCCN(CCCCCCCCOC(=O)C(CCCCCC)CCCCCCCC)CCOC(=O)NCCN(C)C (centres unmarked)", 0.06),
    ("CCCCCCCCC(CCCCCCCC)OC(=O)CCCCCCCN(CCCCCCCCOC(=O)C(CCCCCC)CCCCCCCC)CCCOC(=O)NCCN1CCN(C)CC1 (centres unmarked)", 0.2462),
    ("CCCCCCCC/C=C\\CCCCCCCCN(CCCCCCCCOC(=O)C(CCCCCC)CCCCCCCC)CCOC(=O)NCCN(C)C (centres unmarked)", 0.2243),
    ("CCCCCCCCCCC(CCCCCCCC)COC(=O)CCCCCN(CCCCCC(=O)OCC(CCCCCCCC)CCCCCCCCCC)CCOC(=O)NCCCN(C)C (centres unmarked)", 0.2013),
    ("CCCCC/C=C\\CCOC(=O)CCCCCN(CCCCCCCCOC(=O)C(CCCCCC)CCCCCCCC)CCOC(=O)NCCN1CCCCC1 (centres unmarked)", 0.1344),
    ("CCCCCCCCC(CCCCCC)C(=O)OCCCCCCCCN(CCCCCCCCOC(=O)C(CCCCCC)CCCCCCCC)CCCOC(=O)NCCCN(CC)CC (centres unmarked)", 0.1398),
    ("CCCCC/C=C\\C/C=C\\CCCCCCCCN(CCCCCCCC(=O)OC(CCCCCCCC)CCCCCCCC)CCOC(=O)NCCN1CCOCC1", 0.043),
    ("CCCCCCOC(=O)CCCCCCCCCCN(CCCCCCCCCCC(=O)OCCCCCC)CCOC(=O)NCCN1CCN(C)CC1", 0.1821),
    ("CCCCCCCC/C=C\\CCCCCCCCN(CCCCCCCCOC(=O)C(CCCCCC)CCCCCCCC)CCOC(=O)NCCN1CCOCC1 (centres unmarked)", 0.05226),
    ("CCCCCCCCCC(=O)OCCCCCCCCN(CCCCCCCCOC(=O)CCCCCCCCC)CCOC(=O)NCCN1CCCC1", 0.1886),
    ("CCCCCCCCCCC(CCCCCCCC)COC(=O)CCCCCN(CCCCCC(=O)OCC(CCCCCCCC)CCCCCCCCCC)CCCOC(=O)NCCCN(CC)CC (centres unmarked)", 0.2572),
    ("CCCCC/C=C\\C/C=C\\CCCCCCCCN(CCCCCCCC(=O)OC(CCCCCCCC)CCCCCCCC)CCCOC(=O)NCCN1CCCCC1", 0.1471),
    ("CCCCCCCCCC(=O)OCCCCCCCN(CCCCCCCCOC(=O)C(CCCCCC)CCCCCCCC)CCOC(=O)NCCCN(C)C (centres unmarked)", 0.3634),
    ("CCCCCCCCCCC(CCCCCCCC)COC(=O)CCCCCN(CCCCCC(=O)OCC(CCCCCCCC)CCCCCCCCCC)CCOC(=O)NCCN1CCN(C)CC1 (centres unmarked)", 0.3423),
    ("CCCCCCCCCC(=O)OCCCCCCCN(CCCCCCCCOC(=O)C(CCCCCC)CCCCCCCC)CCOC(=O)NCCN1CCCC1 (centres unmarked)", 0.2474),
    ("CCCCCCCCC(CCCCCCCC)OC(=O)CCCCCCCN(CCCCCCCCOC(=O)C(CCCCCC)CCCCCCCC)CCCOC(=O)NCCN1CCC1 (centres unmarked)", 0.2483),
    ("CCCCCCCCCC(=O)OCCCCCCCN(CCCCCCCCOC(=O)C(CCCCCC)CCCCCCCC)CCCOC(=O)NCCCN(CC)CC (centres unmarked)", 0.438),
    ("CCCCC/C=C\\C/C=C\\CCCCCCCCN(CCCCCCCC/C=C\\C/C=C\\CCCCC)CCOC(=O)CCCN(C)C [Lipid A, reference compound]", 0.2901),
    ("CCCCCCCCC(CCCCCCCC)OC(=O)CCCCCCCN(CCCCCCCCOC(=O)C(CCCCCC)CCCCCCCC)CCOC(=O)NCCN1CCCCC1 (centres unmarked)", 0.02962),
    ("CCCCCCCCC(CCCCCCCC)OC(=O)CCCCCCCN(CCCCCCCCOC(=O)C(CCCCCC)CCCCCCCC)CCNC(=O)OCCN(C)C (centres unmarked)", 0.2722),
]
